# Subject of test: Gal3S6S(b1-4)GlcNAc
# Procedure details: glycan array binding signal (z-score within array); higher = stronger binding
# Run conditions: glycan notation: IUPAC condensed, linker removed
Shown is part of a subset that was picked to be rich in the strongest signals.
Item-by-item account of glycan array binding signal (z-score)

Here are 3 binders together with their reported answers.
{"Binder": "SfaEH (Escherichia coli), Q1RDG5 (protein) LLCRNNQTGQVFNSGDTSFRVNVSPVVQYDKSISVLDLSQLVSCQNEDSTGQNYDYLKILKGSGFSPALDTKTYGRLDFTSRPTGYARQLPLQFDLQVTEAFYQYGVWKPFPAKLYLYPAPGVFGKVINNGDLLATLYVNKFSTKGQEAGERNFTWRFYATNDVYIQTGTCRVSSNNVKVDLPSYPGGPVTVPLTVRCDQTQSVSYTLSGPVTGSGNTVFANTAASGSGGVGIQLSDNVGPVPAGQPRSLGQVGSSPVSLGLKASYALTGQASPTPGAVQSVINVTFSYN", "glycan array binding signal (z-score)": 2.12}
{"Binder": "Epa3to1 (Candida glabrata) (protein) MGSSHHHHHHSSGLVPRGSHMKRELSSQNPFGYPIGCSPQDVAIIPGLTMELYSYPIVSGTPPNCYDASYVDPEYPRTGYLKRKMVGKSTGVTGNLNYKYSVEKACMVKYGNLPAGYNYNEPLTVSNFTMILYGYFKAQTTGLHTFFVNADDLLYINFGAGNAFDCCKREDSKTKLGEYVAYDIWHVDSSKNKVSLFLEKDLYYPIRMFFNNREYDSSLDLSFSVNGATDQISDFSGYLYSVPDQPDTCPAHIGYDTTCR", "glycan array binding signal (z-score)": 0.487}
{"Binder": "Clone646PsrP (Streptococcus pneumoniae) (protein) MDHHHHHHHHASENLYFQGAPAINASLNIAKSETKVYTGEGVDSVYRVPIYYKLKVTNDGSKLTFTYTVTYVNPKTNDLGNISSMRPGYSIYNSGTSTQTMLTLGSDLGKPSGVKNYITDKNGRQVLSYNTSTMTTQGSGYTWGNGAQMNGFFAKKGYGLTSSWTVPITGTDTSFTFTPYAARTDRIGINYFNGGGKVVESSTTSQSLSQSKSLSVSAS", "glycan array binding signal (z-score)": 2.75}

Reported glycan array binding signal (z-score) of PfulAvr4 (Pseudocercospora fuligena) (protein) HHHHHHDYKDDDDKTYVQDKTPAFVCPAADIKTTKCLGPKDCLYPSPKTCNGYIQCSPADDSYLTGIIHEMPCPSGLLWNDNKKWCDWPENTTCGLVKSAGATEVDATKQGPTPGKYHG : 0.034

The reported measurements were obtained from the supplement of paper PMC8728848.
